- assayed.system: Melanocyte-stimulating hormone receptor (Mus musculus, UniProt Q01727)
- Sequence (Q01727 whole entry): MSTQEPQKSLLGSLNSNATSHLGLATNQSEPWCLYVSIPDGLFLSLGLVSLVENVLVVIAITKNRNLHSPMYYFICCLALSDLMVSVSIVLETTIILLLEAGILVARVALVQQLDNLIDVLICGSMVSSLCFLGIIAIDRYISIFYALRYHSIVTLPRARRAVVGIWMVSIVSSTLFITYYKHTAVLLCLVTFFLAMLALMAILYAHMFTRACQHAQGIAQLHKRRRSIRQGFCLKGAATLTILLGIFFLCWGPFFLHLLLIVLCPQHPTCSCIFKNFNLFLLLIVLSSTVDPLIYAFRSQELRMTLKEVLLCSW
- method.summary: Agonistic activity against mouse Melanocortin 1 receptor (mMC1R)
property: EC50 (µM)

compound	value.reported
CC(=O)N[C@H](Cc1ccccc1)C(=O)NCC(=O)N[C@H](Cc1c[nH]c2ccccc12)C(N)=O	100
NCCCC[C@H]1NC(=O)[C@H](Cc2c[nH]c3ccccc23)SCCN(CCc2ccccc2)C1=O	63.4
CC(=O)N[C@H](Cc1ccccc1)C(=O)N[C@@H](CCC(N)=O)C(=O)N[C@H](Cc1c[nH]c2ccccc12)C(N)=O	100

(P) CC(=O)N[C@@H](Cc1c[nH]cn1)C(=O)N[C@H](Cc1ccccc1)C(=O)N[C@@H](CCC(N)=O)C(=O)N[C@H](Cc1c[nH]c2ccccc12)C(N)=O
(Q) O=C1[C@H]2CCCN2C(=O)C(Cc2ccc3ccccc3c2)SCCN1CCc1c[nH]c2ccccc12 (stereo not given in full)
**Q:** Pick the one with the larger EC50: P vs Q Let me know the label of the one you choose.
**A:** P
